Consider the following variants; for each one, report its one-hybrid fitness for binding NBS DNA.
B1: Caulobacter ParB omega fusion; a variant is named by its letters at X, in order, B8GW30 (parent)
chain: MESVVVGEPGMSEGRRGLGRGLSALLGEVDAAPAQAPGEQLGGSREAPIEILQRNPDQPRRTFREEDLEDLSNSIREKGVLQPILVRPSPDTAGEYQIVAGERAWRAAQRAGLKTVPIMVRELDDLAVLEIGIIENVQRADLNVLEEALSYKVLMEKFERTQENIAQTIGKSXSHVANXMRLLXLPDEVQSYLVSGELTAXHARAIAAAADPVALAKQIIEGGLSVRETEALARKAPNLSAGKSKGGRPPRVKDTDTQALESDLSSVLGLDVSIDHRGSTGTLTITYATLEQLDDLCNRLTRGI

Variants of: B1
Experiment: one-hybrid fitness for binding NBS DNA (the Noc-binding site; scaled: cognate 1, non-cognate 0); higher = stronger binding
Conditions: with NBS DNA site
Whole data set: some 81,000 sequences, median “one-hybrid fitness for binding NBS DNA” near -0.1, cut for the highest 2% near 0.36. Only a selection was taken, and the highest values are over-represented in it overall.

Below, each entry is followed by its recorded one-hybrid fitness for binding NBS DNA result.
# VARIANT ID, QUANTITY MEASURED, MEAS VALUE
records = [
    ("QMKT", "one-hybrid fitness for binding NBS DNA", 0.75),
    ("QREN", "one-hybrid fitness for binding NBS DNA", "≤ 0.2"),
    ("QYWN", "one-hybrid fitness for binding NBS DNA", "≤ 0.2"),
    ("QYKG", "one-hybrid fitness for binding NBS DNA", 0.294),
    ("HRGN", "one-hybrid fitness for binding NBS DNA", "≤ 0.2"),
    ("GNCM", "one-hybrid fitness for binding NBS DNA", "≤ 0.2"),
    ("EDYG", "one-hybrid fitness for binding NBS DNA", "≤ 0.2"),
    ("RRDD", "one-hybrid fitness for binding NBS DNA", "≤ 0.2"),
    ("LTEG", "one-hybrid fitness for binding NBS DNA", "≤ 0.2"),
    ("MFLM", "one-hybrid fitness for binding NBS DNA", "≤ 0.2"),
]

Provide the reported one-hybrid fitness for binding NBS DNA of each entry below, same order.
1. QYKM
2. YDNH
3. CNHR
4. QFVR

0.369
≤ 0.2
≤ 0.2
≤ 0.2

Data origin, for the record: a collection of fitness landscapes (doi:10.1016/j.celrep.2020.107928)
